# RECORDED CONDITIONS: in n-hexane, 288.15 K
MEASURED ATTRIBUTE: solubility (mole fraction)
Provide a numeric answer; units are not to be included.

Record NCCCCCCN . Reported solubility (mole fraction): 0.018

====

# RECORDED CONDITIONS: in cyclohexane, 278.15 K
MEASURED ATTRIBUTE: solubility (mole fraction)
Provide a numeric answer; units are not to be included.

Record NCCCCCCN . Reported solubility (mole fraction): 0.0071

====

# RECORDED CONDITIONS: in isobutanol, 303.15 K
MEASURED ATTRIBUTE: solubility (mole fraction)
Provide a numeric answer; units are not to be included.

Record NCCCCCCN . Reported solubility (mole fraction): 0.521
